assay: yeast display, Sf9 membrane polyspecificity reagent, FACS + sequencing; frameworks hold sequencing errors
property_measured: polyreactivity (PSR sort gate)

See these solved cases before continuing.
# sequence_record, polyreactivity (PSR sort gate)
records = [
    ("QVQLVESGGGLVQAGGSLRLSCAASGRTFGGYAMGWYRQAPGKERELVAAISSGGGTYADSVKGRFTISRDNAKNTVYLQMNSLKPEDTAVYYCAAGSRWYWAYKPTVHYYYWGQGTQVTVSS", "high polyreactivity"),
    ("QVQLVESGGGLVQAGGSLRLSCAASGSTFVYNTMGWYRQAPGKERELVAAISKSGTNTLYADSVKGRFTISRDNAKNTVYLQMNSLKPEDTAVYYCAVRSVPRWFTELDYWGQGTQVTVSS", "low polyreactivity"),
    ("QVQLVESGGGLVQAGGSLRLSCAASGSIFRYNTMGWYRQAPGKVRELVATITRRGGSTYYADSVKGRFTISRDNAKNTVYLQMNSVKPEDTAVYYCIADNFGGPYNYWGQGTQVTVSS", "low polyreactivity"),
    ("QVQLVESGGGLVQAGGSLRLSCAASGFIFSPYAMGWYRQAPGKERELVAAISSGTRTNYADSVKGRFTISRDNAKNTVYLQMNSLKPEDTAVYYCAAKYRGTYDSRVYYWFYYWGQGTQVTVSS", "high polyreactivity"),
    ("QVQLVESGGGLVQAGGSLRLSCAASGLIFRRYAMGRNRQAHGKERELVAAISRSGGSTYYADSVKGRFTISRDNEKNTVYLQMNSLKPEDTAVYYCAADYAPVFWGDYKYDYWGQGTQVTVSS", "high polyreactivity"),
]

Fill in reported polyreactivity (PSR sort gate) for this entry: `QVQLVESGGGLVQAGCSLRLSCAASGITFANYAMGWYRPAPGKVRELVAAINWSGGITYADSVKGRFTISRDNAKNTVYLQMHSLKPEDTAVYYCNPYYPDYAKYDYWGQGTQVTVSS` low polyreactivity

Fill in reported polyreactivity (PSR sort gate) for this entry: `QVQLVESGGGLVQAGGSLRLSCDASGSTFDVNTMGWYRQAPGKERELVAAIRLRGGSTYYADSVKGRFTISRDNAKNTVYLLMISLKPEDTAVYYCAADYTLIYDYCGQGTQVTVSS` low polyreactivity

Fill in reported polyreactivity (PSR sort gate) for this entry: `QVQLQESGGGLVQAGGDLRLSCAASGNIFRDYIMGWYRQAPGKEREFVAGIDRGANTNYADSVKGRFTISRDNAKNTVYLQMNSLKPEDTAVYYCAVHTAIVPDFIYWGQGSQVTVSS` low polyreactivity

Fill in reported polyreactivity (PSR sort gate) for this entry: `QVHLVESGGCLVQAGGSLRLSCAASGITFRWYAMGWYILAPGKERELVSSIDGRGASTYADSVKGRFTSSRDNAKNTVYLQMNSLKPEDSAVYYCAVAQVRVSYLWVRKFYYWGQGTQVTVSS` high polyreactivity

Fill in reported polyreactivity (PSR sort gate) for this entry: `QVQLVESGGGLVQAGGSLRLSCAASGSTLPPYVMGRYRQAPGKERELVAAISSSSGSTYYADSVKGRFTISRDNAKNTVYLQRNSLKPEDTAVYYCAAVTGWAREEEYWGQGTQVTVSS` low polyreactivity

Fill in reported polyreactivity (PSR sort gate) for this entry: `QVQLVESGGGLLQAGGSLRLSCAASGIIYRPYAMGWYRQAPGKERELVAAITGSGVSTYYADSVKGRFTISRDNAKNTVYLQMNSLKPEDTAVYYCAKRYNRGYHRYDSWGQGTQVTVSS` low polyreactivity

----------
assay: yeast display, Sf9 membrane polyspecificity reagent, FACS + sequencing; frameworks hold sequencing errors
property_measured: polyreactivity (PSR sort gate)

# sequence_record, property_measured, value
data = [
    ("QVQLVESGGGLVQAGGSLRLSCAASGLTFPHYAMGWYRQAPGKEREFVAVISWSGGSTSYADSVKGRFTISRDNAKNTVYLQMNSLKPEDTAVYYCAAVYRTREWSYYYWGQGTQVTVSS", "polyreactivity (PSR sort gate)", "high polyreactivity"),
    ("QVQLVESGGGLVQAGGSLRLSCAASGRTFRPYAMGWYRQAPGKERELVAAISYRGGITNYADSVKGRFTISRDNAKNTVYLQMNSLKPEDTAVYYCNRYAIWVSRYSDLDYWGQGTQVTVSS", "polyreactivity (PSR sort gate)", "low polyreactivity"),
    ("QVQLVESGGGLVQAGGSLRLSCAASGRTFYFNAMGWYRQAPGKERELVAGISGDGSTNYADSVKGRFTISRDNAKNTFYLQMNSLKPEDTAVYYCAKTMGSQSYDFDYWGQGTQVTVSS", "polyreactivity (PSR sort gate)", "low polyreactivity"),
    ("QVLLQESGGGLVQAGGSLRLSCAASGNIFSAGGMGWSRQAPVNERELVAGIGTGTSTNYADSVKGRFTISRDNSKNTVYLQMNSLTPEDTAVYYCAAAYYSGLSHWYWGQGTQVTVSS", "polyreactivity (PSR sort gate)", "low polyreactivity"),
    ("QVQLVESGGGLVQAGGSLRLSCAASGLIFSTYAMGWYRQAPGKERELVAAINSGGGNTYYADSVKGRFTISRDNAKNTVYLQMNSLKPEDTAVYYCNAQWRRHPGIWHYGYWGQGTQVTVSS", "polyreactivity (PSR sort gate)", "low polyreactivity"),
]

Fill in reported polyreactivity (PSR sort gate) for this entry: `QVQLVESGGGLVQAGGSLRLSCASSGSIFYVNTMGWYRQAPGKERELVATISVSGGSTNYADSVKGRFTISRDNAKNTVYFQMNSLKPEDTAVYYCAEAYLRYYDGPYDYWGQGTQVTVSS` low polyreactivity

Fill in reported polyreactivity (PSR sort gate) for this entry: `QVQLEDSGGGLVQAGGSLLLSCPASGRIRYGMGWYRQAPGKERELVATITRGGSTNYADSVKGRFTISRDNAKNTVFLKMISLKPEDTAVYYCNAGSSWYYWRGYAYDYWGQGTQVSVSS` high polyreactivity

Fill in reported polyreactivity (PSR sort gate) for this entry: `QVQLVESGGGLDQAGGSLRLSCAASGFTSYLYTMGWYRQAPGKERELVAAISNSGGNTYYADSLKGRFTISRDIAKKTVYLQMNSLKPEDTAVYYCAAVRRISRYDYWGQGTQVTVSS` high polyreactivity

Fill in reported polyreactivity (PSR sort gate) for this entry: `QVQLVESGGGVVQAGGSLGLSCAASGRIFDVNAMGWYRQAPGKERELVAAITYSDGSTYYADSVKGRFTISRDIAKNTVYLQMNSLKPEDTAVYYCAATQEPVTPQPYGYWGQGTQVTVSS` low polyreactivity

Fill in reported polyreactivity (PSR sort gate) for this entry: `QVQLVESGGGLVQAGGSLRLSCAASGRIFSDYAMGWYRQAPGKERELVATISASGGSTYYADSVKGRFTVSRDNAKNSVYLQMNSLKPEDTAVYYCAGDYEGYNFDYWGQGTQVTVSS` low polyreactivity

Fill in reported polyreactivity (PSR sort gate) for this entry: `QVQLVESGGGLVQAGGSLRLSCAASGRTFGLYTKAWYIQAPGKERELVAAISSGGITYYADSVKGRFTISRDNAKNTVYLQMNSLKPEDTAVYYCAADFRTTRRYNYRYNYWGQGTQVTVSS` high polyreactivity

----------
test: yeast display, Sf9 membrane polyspecificity reagent, FACS + sequencing; frameworks hold sequencing errors

# sequence_record, polyreactivity (PSR sort gate)
data = [
    ("QVQHVESGGGLVQAGGSLRLSCAASGSIFVPYAMGWYRQAPGKERELVAAISSRGGRTYYADSVKGRFTISRDNAKNTVYLQMISLKPEDTAVYYCNKTAGSHIPRLEYWGQGTQVTVSS", "low polyreactivity"),
    ("QVQLVESGGGLVQAGGSLRLSCAPSGRTFIFYAMGWSRQAPGKERELVAAISSSGSGTYYADSVKGRFTISRDNAKNTVYLQMNSLIPEDTAVYYCAADVVNSRRRPKYGYWGQGSQVTVSS", "low polyreactivity"),
]

----------
experiment: yeast display, Sf9 membrane polyspecificity reagent, FACS + sequencing; frameworks hold sequencing errors
property_measured: polyreactivity (PSR sort gate)

# sequence_record, polyreactivity (PSR sort gate)
rows = [
    ("QVQLVESGGGIVQAGGSLRLSCADSGFISVTYAMGWYRPAPGKERELDAAITYSGGSTYYADSVKGRYTISRDNAKNTVYLQMNSLKPEDTAVYYCAKKRRVVVLSVQGDYWGQGTQVTVSS", "low polyreactivity"),
    ("QVQLVESGGGLVQAGGSLRLSCAASGIIFAYYAMGWYRQGPGKERELVASITNTGSTYYADSVKGRFTISRDNSKNTVYLQMNSLKPEDTAVYYCNAVLSSNTKWRYPGDYWGQGTQVTVSS", "low polyreactivity"),
    ("QVQLVESGGGLVQAGGSLRLSCAASGSIFGRYAMGWYRQAPGKEMELVAAISTGDSTYYADSVKGRFTISRDNAKNTVYLQMNSLKPEDTAVYYCNRRGRRGYDYWGQGTQVTVSS", "high polyreactivity"),
    ("QDQLVESGGCLVQAGGSLRLSCAASGSTFPIYAMGWYRQEPGKERELVAPITWNGGRTYYADSVKGRFTISRDNAKNTVYLQMNSLKPEDTAVYYCNALYYHNLEGNYWGQGTQVTVSS", "high polyreactivity"),
]

From here, focus on the item given below.
Fill in reported polyreactivity (PSR sort gate) for this entry: `QVQLEDSGGGLVQAGGSLRLSCAASGLTFYGYTMGWYRQAPGKERELVAAISWSGGNTYYADSVKGRFTISRDNAKNTVYLQMNSLKPEDTAVYYCAAEHWTYDWVDYWGQGTQVTVSS` low polyreactivity
